Let's look at some molecules and their measured pIC50.
ASSAYED TARGET: UniProt P28482
Sequence (P28482 whole entry): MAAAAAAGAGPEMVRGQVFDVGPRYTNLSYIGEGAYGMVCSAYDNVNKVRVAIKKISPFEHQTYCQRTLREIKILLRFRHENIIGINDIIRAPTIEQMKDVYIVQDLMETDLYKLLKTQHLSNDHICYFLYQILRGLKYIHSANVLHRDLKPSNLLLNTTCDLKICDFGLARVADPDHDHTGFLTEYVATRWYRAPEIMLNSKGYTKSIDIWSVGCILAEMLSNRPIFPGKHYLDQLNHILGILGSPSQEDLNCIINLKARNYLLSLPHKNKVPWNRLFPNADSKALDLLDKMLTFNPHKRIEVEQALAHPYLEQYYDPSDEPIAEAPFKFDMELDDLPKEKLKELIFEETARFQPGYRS
PROTOCOL NOTES: Active Human ERK2 (hERK2) Activity Assay (IMAP-FP)
Type: biochemical
CONDITIONS: Table 5, 0.5 nM hERK2, 30 μM ATP, 10 point titration, read-out: AERK2 IC50
Lab note: report pIC50 as minus log10 of the concentration in molar units, number only.

For orientation, consider the following solved cases.
CCN(CC)c1n[nH]c2cc(NC(=O)N[C@H](COC)c3ccccc3)ncc12 | 7.98
C[C@@H](NC(=O)Nc1cc2[nH]nc(N(C)C)c2cn1)c1ccccc1 | 7.86
COCCNC(=O)Nc1cc2[nH]nc(N3CCOCC3)c2cn1 | 7.87

Lookup: Give me measured pIC50, please, for this molecule: CN1C[C@@H](NC(=O)Nc2cc3[nH]nc(N4CCOCC4)c3cn2)[C@H](c2ccccc2)C1
Found: 9.70

Lookup: Please give the documented pIC50 of COCCNC(=O)Nc1cc2[nH]nc(N3CCC3)c2cn1
Found: 6.59

Lookup: Name the recorded pIC50 of the item C[C@@H](NC(=O)Nc1ncc2c(N)n[nH]c2c1F)c1ccccc1 in your answer.
Found: 8.19

Lookup: Provide one value: measured pIC50 of COC[C@@H](NC(=O)Nc1cc2[nH]nc(N3CC(OC)C3)c2cn1)c1ccccc1
Found: 5.64
